biological target: human Claudin18.2 (human); assay: cell-based or functional assay
QUANTITY KIND: CDC % Relative activity (%)
Quick reminder: number only, in %, skip the unit.

Example entries and their recorded answers appear below.
409G10G6 (antibody, V domains shown) VH: DVQLVESGGGLVQPGGSRKLSCAASGFTFSGFGMHWIRQTPEKGLEWVAYISSDSRPIYYADTVKGRFTISRDNPKNTLFLQMTSLRSEDTAMYFCGRFYYGNSFDHWGQGTLVTVSA VL: DIVMTQSPSFLTVTAGEKVTLSCRSSQSLLNSGNQRNYLTWYQQKPGQPPKLLIYWASTRESGVPDRFTGSGSGTDFTLTISSVQAEDRALYYCQNAYSFPLTFGTGTKLELR: 55.6
271B1B6 (antibody, V domains shown) VH: QAYLQQSGAELVRSGASVKMSCKASGYTFTNYNIHWVKQTPGQGLEWIGYIYPGNGGNYYNQKFKGKATLTADTSSITAYMQISSLTSEDSAVYFCARDYYGNSFAYWGQGTLVTVSA VL: DIVMTQSPSSLTVTAGEKVTMNCKSSQSLLNSGNQKNYLTWYQQKPGQPPKLLIYWASTRESGVPDRFTGSGSGTDFTLTISSVQAEDLAIYYCQNDYYYPLTFGAGTKLELK: 145
234E1F12 (antibody, V domains shown) VH: QAYLQQSGAELVRSGASVKMSCKASGYTFTSHNMHWVKQTPRQGLEWIGYIYPGNGDTNYNQKFKGKATLTADTSSSTAYMQISSLTSEDSAVYFCTRDYYGNSFAYWGQGTLVTVSA VL: DIVMTQSPSSLTEKAGERVSMSCKSSQSLFNSGNQKNYLTWYQQKPGQPPKLLIYWASTRESGVPDRFTGSGSGTDFTLTISSVQAEDLAVYYCQNAYWYPFTFGAGTKLELK: 126
252E7C9 (antibody, V domains shown) VH: QTYLQQSGAELVRSGASVKMSCRTSGYSFTSHNMHWVKQTPGQGLEWIGYIYPGNGGSYYNQKFKGKAILTADTSSSTAYMQISSLTSEDSAVYFCTRDYYGNSFVYWGQGTLVTVSA VL: DVVMTQSPSSLTEKTGEKVSMSCKSSQSLLNSGNQKNYLTWYQQKPGQPPKLLIYWASTRESGVPDRFTGSGSGTDFTLTISSLQTEDLAIYYCQNNFRYPFTFGAGTKLELK: 154

Given the entry 416F12F3 (antibody, V domains shown) VH: DVQLVESGGGLVQPGGSRKLSCAASGFTFSSFGMHWVRQAPEKGLEWVAYISSGSSTIYYAHSVKGRFTISRDNPKNTLFLQMTSLGSEDTAMYYCARFYYGNSFAYWGQGTLVTVSA VL: DIVMTQSPSSLTVTAGEKVTLSCKSSQSLLNSGNQKNYLTWYQQKPGQPPKMLIYWASTRESGVPDRFTGSGSGTDFTLTISSVQAEDLAVYYCQNAYTYPLTFGAGTRLELK , report its measured CDC % Relative activity.
220
